IC50 values by entry
Molecular target: UniProt:P49841
Sequence (P49841 whole entry): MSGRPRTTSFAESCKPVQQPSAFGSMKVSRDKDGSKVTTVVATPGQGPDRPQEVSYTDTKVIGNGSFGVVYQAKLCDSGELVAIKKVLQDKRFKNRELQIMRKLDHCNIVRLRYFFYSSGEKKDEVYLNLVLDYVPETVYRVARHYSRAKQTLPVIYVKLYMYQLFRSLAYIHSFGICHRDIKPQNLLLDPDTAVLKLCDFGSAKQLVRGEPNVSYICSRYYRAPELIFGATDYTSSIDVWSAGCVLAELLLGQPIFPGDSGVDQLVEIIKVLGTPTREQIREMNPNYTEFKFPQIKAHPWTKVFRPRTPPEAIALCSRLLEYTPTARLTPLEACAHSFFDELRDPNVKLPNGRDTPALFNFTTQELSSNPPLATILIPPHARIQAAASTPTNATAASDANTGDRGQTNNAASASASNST
Experiment: Inhibition of GSK3-beta by scintillation proximity assay

compound	meas value
FC(F)(F)CNc1nccc(-c2cnn3ncccc23)n1 [GW683003X]	> 32 µM

Note to self: IC50 recorded for c1csc(-c2ccc3c(-c4ccnc(NC5CC5)n4)cnn3n2)c1 was > 32 µM

Item: CN1CCN(c2ccc(Nc3nccc(-c4cnn5nc(-c6ccc(F)cc6)ccc45)n3)cc2)CC1 | IC50: > 25 µM

// provenance: ChEMBL document CHEMBL1143431
